method_notes: Example 4: dose response of FKBP constructs 160-255, Ec50, Ec90 and fold change (raw and normalized to mCherry)
Format: cell-based
cond: fold change during initial analysis
assay_readout: FC (fold change)

Bench note: what FC (fold change) did FKBP-215: combinatorial FKBP13 mutant construct of Table 10, carries M54A (protein, Description of sequence: Construct Name: FKBP-215; Mutation(s): Q72R Q84G A117W V85R DRD P43R M54A K135Y) HCRIKSRKGDVLHAHYTGKLEDGTEFDSSLPRNQPFVFSLGTGGRIKGWDQGLLGMCEGEKRKLVIPSELGYGERGWPPKIPGGATLVFEVELLYIER show?
51.0
